Below, each entry is listed with its recorded self-cleavage.
B1: CPEB3 Ribozyme (parent)
chain: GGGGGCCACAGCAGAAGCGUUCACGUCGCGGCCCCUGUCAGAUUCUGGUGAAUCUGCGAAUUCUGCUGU

Variants of: B1
Assay: self-cleavage, relative activity (ratio to wild type); higher = more cleavage; co-transcriptional
Give your answer as a number; write no unit.

mutationDescriptor	self-cleavage
A16G G65C	0.446
G4A U69G	0.985
A23C C29U	0.389
A8C C33G	0.527
C24G A42U	0.418
U21C U64C	0.609
C24G U69C	0.739
G31U A40C	0.254

// self-cleavage lookup, variant = C7G G41U , result: 0.121

// self-cleavage lookup, variant = A16U C33U , result: 0.865

// self-cleavage lookup, variant = G4U C27U , result: 0.114

Ref: the RNAGym collection of RNA variant scans (doi:10.7554/elife.80360)
